SYSTEM_UNDER_TEST: T1, hPRLR.mFc (soluble dimeric human PRLR) (Homo sapiens, UniProt P16471)
T1 construct: dimeric (hPRLR.mFc)
ASSAY_DETAILS: Surface plasmon resonance (Biacore T200), mAb-capture format
Format: binding
EXPERIMENTAL_PARAMETERS: 37° C., antibody-capture format, analyte hPRLR.mFc
ENDPOINT_LABEL: T½ (h)

>>> quantitative_result("H1H6803P: anti-PRLR antibody, human IgG1 Fc; HCVR/LCVR SEQ ID NOs 226/234 (antibody, V domains shown, human IgG1 Fc) VH: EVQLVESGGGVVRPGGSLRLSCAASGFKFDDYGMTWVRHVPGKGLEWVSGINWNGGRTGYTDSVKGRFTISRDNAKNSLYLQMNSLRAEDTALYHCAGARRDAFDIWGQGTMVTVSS VL: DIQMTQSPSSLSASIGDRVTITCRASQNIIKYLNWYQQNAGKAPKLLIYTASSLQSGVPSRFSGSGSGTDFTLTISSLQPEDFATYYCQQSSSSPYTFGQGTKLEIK")
3.1
